Hey, just so you know, these numbers are from ChEMBL document CHEMBL1201862.

# Test system: SK-MEL-2
# assaySummary: NCI tumour cell line growth inhibition, 48 h
The source made the active and inactive calls. Rule as the data show it: active = GI50 up to about 1.1 µM and inactive = higher.

{"compound": "CN(C)c1ccc(C2SCC(=O)N2c2nc3cc4sc(N5C(=O)CSC5c5ccc(N(C)C)cc5)nc4cc3s2)cc1 (stereo not given)", "measuredOn": "SK-MEL-2", "GI50": "> 100 µM (inactive)"}
{"compound": "C=C1c2nc3ccccc3n2C=C(c2ccc(Cl)cc2)N1c1ccc(OC)cc1", "measuredOn": "SK-MEL-2", "GI50": "22.9 µM (inactive)"}
{"compound": "c1ccc2[nH]c3[nH]c4[nH]c5ccccc5[nH]c4[nH]c3[nH]c2c1", "measuredOn": "SK-MEL-2", "GI50": "> 100 µM (inactive)"}
{"compound": "CCc1c(Cc2[nH]c(Cc3[nH]c(C=O)c(C)c3CC)c(CC)c2CC)[nH]c(C=O)c1C", "measuredOn": "SK-MEL-2", "GI50": "> 10 µM (inactive)"}
{"compound": "COc1ccc2c(c1)O[C@H]1c3ccc(O)cc3OC[C@@H]21", "measuredOn": "SK-MEL-2", "GI50": "26.5 µM (inactive)"}
{"compound": "O=C1NC(=O)C(C(=O)C(=O)Nc2cc(Cl)ccc2Cl)C(=O)N1", "measuredOn": "SK-MEL-2", "GI50": "> 100 µM (inactive)"}
{"compound": "COc1ccc2nc3c(C(=O)NCCN(C)C)cccc3cc2c1", "measuredOn": "SK-MEL-2", "GI50": "2.49 µM (inactive)"}
{"compound": "Cc1ccc(S(=O)(=O)NC2(C=O)CCCC3CCCCC32)cc1 (stereo not given)", "measuredOn": "SK-MEL-2", "GI50": "> 100 µM (inactive)"}
{"compound": "COC(=O)Cc1cc(=O)oc2c1C(=O)CCC2", "measuredOn": "SK-MEL-2", "GI50": "> 100 µM (inactive)"}
{"compound": "CCCNC(=O)C(C)C1CCC2(C)C=CC(=O)C(C)=C2C1O (stereo not given)", "measuredOn": "SK-MEL-2", "GI50": "> 100 µM (inactive)"}

----------
# Test system: KM12
# assaySummary: NCI tumour cell line growth inhibition, 48 h
Activity calls are given as the source filed them. Cut-off read from the data, not from the text of the source: active = GI50 up to about 1.1 µM and inactive = higher.
Classes used: 1 (yes) = active, 0 (no) = inactive

{"compound": "COc1ccc(CNc2nc3cc(C(F)(F)F)ccc3nc2C(=O)O)cc1", "measuredOn": "KM12", "cat": "0 (no)"}
{"compound": "C[S+](C)CCOC(=O)C(=[N+]=[N-])c1ccc([N+](=O)[O-])cc1", "measuredOn": "KM12", "cat": "0 (no)"}
{"compound": "CCCNC(=O)C(C)C1CCC2(C)C=CC(=O)C(C)=C2C1O (stereo not drawn)", "measuredOn": "KM12", "cat": "0 (no)"}
{"compound": "O=C1NC(=O)C(C(=O)C(=O)Nc2cc(Cl)ccc2Cl)C(=O)N1", "measuredOn": "KM12", "cat": "0 (no)"}
{"compound": "Cc1cccc(C(=O)O)c1CC1NCCC2c3ccccc3NC12 (stereo not drawn)", "measuredOn": "KM12", "cat": "0 (no)"}
{"compound": "O=C1[C@@H]2[C@@H](CN3CN(c4ccccc4)N=C(c4ccccc4)[C@@]23c2ccccc2)C(=O)N1c1ccccc1", "measuredOn": "KM12", "cat": "0 (no)"}
{"compound": "CCN(CC)CCCNc1[nH]c2ccccc2c2nc3ccc(OC)cc3c1-2", "measuredOn": "KM12", "cat": "1 (yes)"}
{"compound": "Cn1ncc2c(Nc3cccc(Cl)c3)nc(Nc3cccc(Cl)c3)nc21", "measuredOn": "KM12", "cat": "0 (no)"}
{"compound": "C[As](C)SCC(NC(=O)CCC(N)C(=O)O)C(=O)NCC(=O)O.c1ccncc1 (stereo not drawn)", "measuredOn": "KM12", "cat": "1 (yes)"}
{"compound": "OC1CN=C2c3ccccc3C(O)(c3ccc(Cl)cc3)N2C1 (stereo not drawn)", "measuredOn": "KM12", "cat": "0 (no)"}
{"compound": "CC1CC/C(=C\\c2ccc(F)cc2)C2=C1C(c1ccc(F)cc1)n1c(s/c(=C\\c3ccc(Cl)cc3)c1=O)=N2 (stereo not drawn)", "measuredOn": "KM12", "cat": "0 (no)"}
{"compound": "CNC(=O)[C@H](Cc1ccccc1)NC(=O)N(CCC#N)CCN(C(=O)N[C@@H](Cc1ccccc1)C(=O)OC)c1ccccc1", "measuredOn": "KM12", "cat": "0 (no)"}
{"compound": "CC(C)(O)/C=C/C(=O)[C@](C)(O)[C@H]1[C@H](O)C[C@@]2(C)[C@@H]3CC=C4[C@@H](C[C@H](O)C(=O)C4(C)C)[C@]3(C)C(=O)C[C@]12C [CUCURBITACIN D]", "measuredOn": "KM12", "cat": "1 (yes)"}
{"compound": "CC(=O)C1(/N=N/c2ccc(S(N)(=O)=O)cc2)CCOC1=O (stereo not drawn)", "measuredOn": "KM12", "cat": "0 (no)"}
{"compound": "COc1cc(C=O)cc(/C=N/c2ccc(S(N)(=O)=O)cc2)c1O", "measuredOn": "KM12", "cat": "0 (no)"}
{"compound": "N#Cc1c(-c2ccccc2)c2c([nH]c1=O)-c1cc([N+](=O)[O-])ccc1CCC2", "measuredOn": "KM12", "cat": "0 (no)"}
{"compound": "O=C(O)c1cccc(C(=O)O)c1[S+]([O-])Cc1ccccc1 (stereo not drawn)", "measuredOn": "KM12", "cat": "0 (no)"}
{"compound": "CC(=O)OC(C)C(=O)C1c2cccc(O)c2C(=O)c2c(O)cc(C)cc21 (stereo not drawn)", "measuredOn": "KM12", "cat": "1 (yes)"}
{"compound": "CCc1c(Cc2[nH]c(Cc3[nH]c(C=O)c(C)c3CC)c(CC)c2CC)[nH]c(C=O)c1C", "measuredOn": "KM12", "cat": "0 (no)"}
{"compound": "C=C(C)OCOCCOC", "measuredOn": "KM12", "cat": "0 (no)"}
{"compound": "Cc1ccc(Cl)c2c(=O)c3ccc([N+](=O)[O-])cc3sc12", "measuredOn": "KM12", "cat": "0 (no)"}
{"compound": "COc1ccc2nc3c(C(=O)NCCN(C)C)cccc3cc2c1", "measuredOn": "KM12", "cat": "0 (no)"}
{"compound": "COc1ccc(/C=c2/s/c(=C(\\C#N)c3nc4ccccc4[nH]3)n(-c3ccccc3)c2=O)cc1", "measuredOn": "KM12", "cat": "0 (no)"}
{"compound": "CS/C=C\\C(=O)O[C@H]1C[C@@H]2[C@@H](O)c3occ(C)c3C[C@]2(C)[C@@H](C)C1", "measuredOn": "KM12", "cat": "0 (no)"}
{"compound": "CC(C)(C)OC(=O)NCC(c1c[nH]c2ccc(Br)cc12)c1c[nH]c2ccc(Br)cc12", "measuredOn": "KM12", "cat": "0 (no)"}
{"compound": "COc1cccc(/C=C/C(=O)c2sc(C(N)=S)nc2C)c1O", "measuredOn": "KM12", "cat": "0 (no)"}
{"compound": "Oc1ccc(-c2nc3ccc4ccccc4c3c3c2CCCC3)c(O)c1", "measuredOn": "KM12", "cat": "0 (no)"}
{"compound": "O=C(c1c(F)c(F)c(F)c(F)c1F)n1c(=S)n(C(=O)c2c(F)c(F)c(F)c(F)c2F)c2ccccc21", "measuredOn": "KM12", "cat": "0 (no)"}
{"compound": "CCOC(=O)CCc1c(C(=O)OCC)[nH]c(/C=C2/NC(=O)C(C)=C2CC)c1C", "measuredOn": "KM12", "cat": "0 (no)"}
{"compound": "CC(Cc1ccc2c(c1)OCO2)N(C)C(=O)C1=CCN(C)CC1 (stereo not drawn)", "measuredOn": "KM12", "cat": "0 (no)"}
{"compound": "Nc1n[nH]c2c(C(=O)Nc3ccc(Cl)cc3)c(N)n(N)c(=O)c12", "measuredOn": "KM12", "cat": "0 (no)"}
{"compound": "Cc1cc(C)c2c(=O)n(CN3CCN(c4ccccc4)CC3)sc2n1", "measuredOn": "KM12", "cat": "0 (no)"}
{"compound": "CC1(C)N=C(N)N=C(N)N1c1ccc(CCCCc2ccc(S(=O)(=O)F)cc2Cl)c(Cl)c1", "measuredOn": "KM12", "cat": "0 (no)"}
{"compound": "CN(C)/C=N/CC(O)c1ccccc1 (stereo not drawn)", "measuredOn": "KM12", "cat": "0 (no)"}
{"compound": "CC1(C)CC(C#Cc2ccccc2)CC(C)(C)N1O", "measuredOn": "KM12", "cat": "0 (no)"}
{"compound": "COc1nc(N=P(c2ccccc2)(c2ccccc2)c2ccccc2)cc(=O)[nH]1", "measuredOn": "KM12", "cat": "0 (no)"}
{"compound": "CCC(C)C1NC(=O)C(NC(=O)C(CC(C)C)N(C)C(=O)[C@@H]2CC(O)CN2C(=O)[C@H](C)O)C(C)OC(=O)[C@H](Cc2ccc(OC)cc2)N(C)C(=O)[C@@H]2CCCN2C(=O)[C@H](CC(C)C)NC(=O)C(C)C(=O)[C@H](C(C)C)OC(=O)CC1O (stereo partly drawn)", "measuredOn": "KM12", "cat": "1 (yes)"}
{"compound": "COc1ccc(C2c3cc4c(cc3OC(N3CCOCC3)C2C)OCO4)cc1OC (stereo not drawn)", "measuredOn": "KM12", "cat": "0 (no)"}
